Can you tell me melting point for the items I'm about to list?

// returns reported melting point for input Nc1ccc2oc(-c3ccccc3)cc2c1
156 °C

Can you share its melting point? I mean this molecule: O=CNc1cccc(C(=O)Nc2ccc(-c3ccccc3)cc2)c1O
190 °C

Which melting point value is on record for Fc1ccccc1-c1c(OCc2nc3n(n2)CCCC3)nn2c(-c3ccccc3F)nncc12 ?
150 to 152 °C

What value of measured melting point is listed for CSc1nnnc2c1sc1nc(C)ccc12 ?
197 to 198 °C

Fill in the blank: the reported melting point of CC(C)c1cc(C(C)C)c(CC(=O)NS(=O)(=O)Oc2c(C(C)C)cc([N+](=O)[O-])cc2C(C)C)c(C(C)C)c1 is ____.
85 to 89 °C

I am curious: what melting point value has been reported for CC(C)(C)c1cc(C2=C(c3cc(C(C)(C)C)c(O)c(C(C)(C)C)c3)C2=C(C#N)C#N)cc(C(C)(C)C)c1O ?
280 to 281 °C

For the molecule CCCCc1nc2cnc3ccc(O)cc3c2n1C , what melting point is on record?
219 to 220 °C

====

endpoint.label: melting point

Any idea what melting point was measured for Cc1nc(C)c(-c2ccnc(Nc3cccnc3)n2)s1 ?
159 to 162 °C

# input compound: Cc1ccc(C(=O)NC(C)(C(N)=O)C(C)C)cc1 (centres undefined) ; wanted: its melting point
145 to 152 °C

Fill in the blank: the reported melting point of Cc1ccc(C2CCN(c3c(C)c(C)c4c(c3C)[C@@H](c3ccc(C)cc3)C(C)(C)O4)CC2)cc1 is ____.
165 to 167 °C

Would you kindly share the measured melting point for O=C1CCc2cccc3c2N1C(=O)CC3 ?
136 to 140 °C

====

endpoint.label: melting point

Quick one: melting point of CNC(=O)C1CCN(S(=O)(=O)c2ccc(Cl)c(COc3cccc4c(-n5ccnc5)cc(C)nc34)c2Cl)C1 (stereo not drawn) ?
108 °C

Returns the measured melting point for the input molecule. Input: COC(=O)C1Cc2c([nH]c3ccccc23)C(c2ccc(OC)c(O)c2)N1 (stereo not drawn)
140 to 148 °C

What value of melting point has been recorded for this entry: COc1cc(SC)sc1C1NC(C)(C)CO1 (stereo not drawn)
56 to 58 °C

Recorded melting point for NC(=O)N(CCCOc1ccc(C(=O)O)cc1)c1ccc(Cl)cc1 , please?
172 to 174 °C

Item under review: OCc1ccc(-c2ccc3[nH]cc(C[C@H]4CCCN4)c3c2)cc1 . Reported melting point?
65 to 69 °C

Could you share which melting point value was measured for N#Cc1cc(O)c(O)c(C#N)c1CCC(=O)O ?
210 to 220 °C

Form field: reported melting point of CC(C)Cn1nc(O)nc1Cl
84 to 86 °C

Which melting point is reported for this molecule? CC1Cc2cc3c(cc2C(c2ccc(N)cc2)=NN1C(=O)Nc1ccccc1)OCO3 (stereo not drawn)
118 to 120 °C

Item under review: Cc1c(C=O)c2c(c(C)c1NC(=O)CC(C)(C)C)C(c1ccc(C(C)C)cc1)CO2 (stereo not drawn) . Reported melting point?
177 to 178 °C

Give the measured melting point of CCCn1c(N)cc(=O)n(CC2CCCCC2)c1=O .
121 to 122 °C

Would you mind telling me what melting point value was observed for Cc1cc(N)nc(CCc2nc3cc(-c4ccc(S(=O)(=O)N5CCCC5)cc4)cnc3[nH]2)c1 ?
171 °C

Which melting point is reported for this molecule? CC(C(=O)CCl)c1ccc(-c2ccccc2)c(F)c1 (stereo not drawn)
57 to 59 °C

melting point for COCOCc1c([N+](=O)[O-])cc(OC)c(OC)c1OC ?
39 to 40 °C

What melting point value was documented for this molecule, O=Cc1cccc(OCc2nc(-c3ccccc3)c(-c3ccccc3)o2)c1 ?
72 to 75 °C

What measured melting point goes with CCc1nc2cnc3ccccc3c2s1 ?
48 to 49 °C

Recorded melting point for O=C(O)CN1CCN(Cc2ccccc2)C1=O , please?
132 to 133 °C

Quick one: melting point for N#Cc1c(O)nc2ccc([N+](=O)[O-])cc2c1O ?
281 to 282 °C

What does the data say about its melting point? Entry: O=C(OCc1ccc(OCCCc2ccc(Cl)cc2)cc1)c1cccnc1
67 to 68 °C
